Parameter Measured: melting point

Solved cases (3 shown):
1. Br.N=C(N)SCCCOc1oc(=O)c2cc(NC(=O)c3ccccc3)ccc2c1Cl; 203 to 204 °C
2. O=c1oc(OCCCBr)c(Cl)c2ccccc12; 95 to 97 °C
3. O=C(Nc1ccc2c(Cl)c(OCCCBr)oc(=O)c2c1)c1ccccc1; 193 to 194 °C

Task item: Would you mind telling me what melting point value was observed for Br.N=C(N)SCCOc1oc(=O)c2cc(NC(=O)c3ccccc3)ccc2c1Cl ?
Reply: 173 to 175 °C

====

Parameter Measured: melting point

Solved cases (7 shown):
1) Nc1ccc2c(Cl)c(OCCCBr)oc(=O)c2c1; 106 to 107 °C
2) O=c1oc(OCCCBr)cc2ccc([N+](=O)[O-])cc12 [Compound 10b]; 117 to 118 °C
3) O=c1oc(OCCBr)c(Cl)c2ccccc12; 81 to 82 °C
4) O=c1oc(OCCBr)c(Cl)c2ccc([N+](=O)[O-])cc12; 126 to 128 °C
5) O=C(Nc1ccc2c(Cl)c(OCCBr)oc(=O)c2c1)c1ccccc1; 214 to 216 °C
6) Nc1ccc2c(Cl)c(OCCBr)oc(=O)c2c1; 134 to 136 °C
7) O=c1oc(OCCCCBr)c(Cl)c2ccccc12; 75 to 77 °C

Task item: Would you mind telling me what melting point value was observed for O=c1oc(OCCBr)cc2ccc([N+](=O)[O-])cc12 [Compound 10a] ?
Reply: 95 to 97 °C
